measured target: human serum albumin (HSA) (Homo sapiens, UniProt P02768)
Sequence (P02768 25-609): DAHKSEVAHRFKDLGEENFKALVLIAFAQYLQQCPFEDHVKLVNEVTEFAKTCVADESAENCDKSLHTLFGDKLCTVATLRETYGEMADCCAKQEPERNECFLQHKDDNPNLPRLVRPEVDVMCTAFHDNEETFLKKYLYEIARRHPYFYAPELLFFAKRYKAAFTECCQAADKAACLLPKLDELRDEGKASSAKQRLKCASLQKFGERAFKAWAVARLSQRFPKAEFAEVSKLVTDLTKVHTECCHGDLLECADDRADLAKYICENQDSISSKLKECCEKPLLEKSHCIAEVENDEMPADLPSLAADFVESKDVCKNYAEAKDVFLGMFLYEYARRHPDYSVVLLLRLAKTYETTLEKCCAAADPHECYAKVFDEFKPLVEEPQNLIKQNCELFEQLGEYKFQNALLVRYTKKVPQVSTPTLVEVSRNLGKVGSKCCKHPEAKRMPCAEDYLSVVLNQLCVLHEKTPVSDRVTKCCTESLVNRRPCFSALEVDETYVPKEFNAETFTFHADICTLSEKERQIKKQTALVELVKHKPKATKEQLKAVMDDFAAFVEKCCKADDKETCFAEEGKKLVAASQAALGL
measurement description: Isothermal titration calorimetry (ITC) of binding of catechins and analogs to HSA
Parameters: purchased Sigma-Aldrich Japan (Tokyo, Japan)
applied conditions: ITC, 298 K
reported endpoint: thermodynamic profile of binding (enthalpy-driven or entropy-driven)

molecule: Oc1cc(O)c2c(c1)O[C@H](c1ccc(O)c(O)c1)[C@H](O)C2 [EC, (−)-epicatechin]
result: entropy-driven
--
molecule: O=C(O[C@@H]1Cc2c(O)cc(O)cc2O[C@H]1c1cc(O)c(O)c(O)c1)c1cc(O)c(O)c(O)c1 [GCg, (−)-gallocatechin gallate]
result: entropy-driven
